System: MARK1
Details: concentration: 1 μM, replicates: in singlicate; n = 1;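 also: KINOMEscan kinase panel screen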
The entries below are paired with their reported %Inh.
Use % as the unit, but write only the number.

CNCc1ccc2nc(NC(=O)c3ccc(C(C)(C)C)cc3)cn2c1 = 0

Returns the measured %Inh for the input compound. Input: Cc1ccccc1-c1cc(-c2c[nH]nc2-c2ccccn2)ccn1 [GW680061]
0

Returns the measured %Inh for the input compound. Input: CC(=O)c1c(C)c2cnc(Nc3ccn(C)n3)nc2n(C2CCCC2)c1=O
0

Returns the measured %Inh for the input compound. Input: COC(=O)c1cccc(NC(=O)NC2CCN(c3ccnc(Nc4ccc(OC)cc4)n3)C2)c1 (stereo not drawn) [GSK1379746]
0

====

The entries below are paired with their reported %Inh.
Test system: LATS1
Settings: concentration: 1 μM, replicates: in singlicate; n = 1
Use % as the unit, but write only the number.

Cc1ccc(NC(=O)Nc2ccc(Cl)cc2)cc1-c1ccc(C(=O)Nc2ccncc2)cc1 = 2
NS(=O)(=O)c1cccc(N/C=C2\C(=O)Nc3ccc(S(=O)(=O)Cc4c(Cl)cccc4Cl)cc32)c1 = 41
Cc1c(Cn2c(C)c(C)n3c(=O)cc(N4CCOCC4)nc23)cccc1C(F)(F)F = 86
COc1ccc(Nc2nccc(N3CCC(NC(=O)C(C)c4ccc(Cl)cc4)CC3)n2)cc1 (centres unmarked) = 32

Returns the measured %Inh for the input compound. Input: Cn1cncc1C(=O)NC1CCN(c2ccnc(Nc3ccc(F)cc3)n2)C1 (centres unmarked)
25

Returns the measured %Inh for the input compound. Input: Cc1ccc(NC(=O)Nc2ccccc2)cc1-c1ccc(C(=O)Nc2ccncc2)cc1
0

Returns the measured %Inh for the input compound. Input: COC(=O)c1cccc(NC(=O)NC2CCN(c3ccnc(Nc4ccc(OC)cc4)n3)C2)c1 (centres unmarked)
0

Returns the measured %Inh for the input compound. Input: CCn1c(-c2ccccc2)nc2cnccc21
0

====

Test system: PCTK3
Construct: gene CDK18
Conditions: concentration: 1 μM, replicates: in singlicate; n = 1
The entries below are paired with their reported %Inh.
Returns: string containing the number followed by the unit.

COC(=O)c1cccc(NC(=O)NC2CCN(c3ccnc(Nc4ccc(F)cc4)n3)C2)c1 (stereo not drawn) [GSK1379725] = 12%
COc1ccc(Nc2nccc(N3CCC(NC(=O)C(C)c4ccc(Cl)cc4)C3)n2)cc1 (stereo not drawn) [GSK1379735] = 9%
COc1ccc(-c2coc3ccc(-c4nnc(C)o4)cc23)cc1 = 11%
Cn1cncc1-c1cc2c(Nc3ccc(OCc4ccccc4)cc3)ncnc2cn1 [GW281179] = 21%

Field: %Inh (PCTK3). Entry: Cc1ccccc1-c1cc(-c2c[nH]nc2-c2ccccn2)ccn1 [GW680061]
20%

Field: %Inh (PCTK3). Entry: COc1ccc(CSc2nnc(-c3ccc4nccn4c3)o2)cc1C(F)(F)F
3%

Field: %Inh (PCTK3). Entry: CSc1ccc(-c2nc3n(c2-c2ccncc2)CCC3)cc1 [SKF-105561]
0%

Field: %Inh (PCTK3). Entry: Nc1ncnc2occ(-c3ccc4c(c3)CCN4C(=O)Cc3cc(F)ccc3F)c12 [GSK2645446]
2%

Field: %Inh (PCTK3). Entry: CNc1nc(-c2ccc3c(N)n[nH]c3c2)cc(N2C[C@@H](C(=O)Nc3ccccc3)CC[C@H]2C)n1 [GSK2298859]
9%
